Origin of the recorded values: patent US10233186B2

Target: ALK2 R206H (GST-tagged mutant ALK2) (Homo sapiens, UniProt Q04771, R206H)
Construct: purchased Carna Bioscience or ThermoFisher 09-148 or PV6232
Sequence (Q04771 21-509 R206H): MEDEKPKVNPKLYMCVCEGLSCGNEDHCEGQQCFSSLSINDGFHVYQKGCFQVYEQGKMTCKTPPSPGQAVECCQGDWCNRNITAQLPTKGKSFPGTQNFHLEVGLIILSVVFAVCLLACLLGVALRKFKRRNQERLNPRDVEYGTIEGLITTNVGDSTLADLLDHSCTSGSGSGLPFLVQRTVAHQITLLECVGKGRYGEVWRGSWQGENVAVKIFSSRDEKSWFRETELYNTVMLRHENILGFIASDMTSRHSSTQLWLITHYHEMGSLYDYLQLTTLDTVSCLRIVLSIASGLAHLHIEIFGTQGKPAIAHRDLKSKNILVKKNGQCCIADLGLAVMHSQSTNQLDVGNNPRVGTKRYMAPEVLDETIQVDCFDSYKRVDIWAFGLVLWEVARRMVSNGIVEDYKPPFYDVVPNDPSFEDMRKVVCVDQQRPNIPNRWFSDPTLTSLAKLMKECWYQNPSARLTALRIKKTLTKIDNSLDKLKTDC
Experiment: ALK binding assay (LANTHASCREEN TR-FRET competitive binding, displacement of Kinase Tracer 178)
Details: ALK2 R206H, LANTHASCREEN TR-FRET competitive binding; read-out: Binding Assay (IC50)
pIC50: −log10 of the molar value.
Reported pIC50 values for a set of compounds

Below, 3 compounds whose answers are already recorded.
- COMPOUND: "CCN1CCC(c2ccc(-c3cc4c(N5CCN(C(=O)C6CCC(C)CC6)CC5)ccnn4c3)cc2)CC1 (stereo not shown)"
  pIC50: "> 8.00"
- COMPOUND: "N[C@@H]1CCN(c2ccc(-c3cc4c(N5CCN(C(=O)C6CC6)CC5)ccnn4c3)cc2)C1"
  pIC50: "> 8.00"
- COMPOUND: "CCNC(=O)N1CC2CC(C1)N2c1ccnn2cc(-c3ccc(C4CCN(C(C)C)CC4)cc3)cc12"
  pIC50: "< 7.30"

For the next question, use this compound.
Problem: For ALK2 R206H (GST-tagged mutant ALK2) (Homo sapiens, UniProt Q04771, R206H), provide pIC50 of CC(C)N1CCC[C@](F)(c2ccc(-c3cc4c(N5CCN(C(=O)OC6COC6)CC5)ccnn4c3)cc2)C1 please.
Solution: > 8.00

---

Molecular target: human ALK2 R206H (Homo sapiens, UniProt Q04771, R206H)
Construct: expressed in transfected cells; host or cells: HEK293 (ATCC CRL1573), lentivirus transduction, blasticidin selection
Sequence (Q04771 21-509 R206H): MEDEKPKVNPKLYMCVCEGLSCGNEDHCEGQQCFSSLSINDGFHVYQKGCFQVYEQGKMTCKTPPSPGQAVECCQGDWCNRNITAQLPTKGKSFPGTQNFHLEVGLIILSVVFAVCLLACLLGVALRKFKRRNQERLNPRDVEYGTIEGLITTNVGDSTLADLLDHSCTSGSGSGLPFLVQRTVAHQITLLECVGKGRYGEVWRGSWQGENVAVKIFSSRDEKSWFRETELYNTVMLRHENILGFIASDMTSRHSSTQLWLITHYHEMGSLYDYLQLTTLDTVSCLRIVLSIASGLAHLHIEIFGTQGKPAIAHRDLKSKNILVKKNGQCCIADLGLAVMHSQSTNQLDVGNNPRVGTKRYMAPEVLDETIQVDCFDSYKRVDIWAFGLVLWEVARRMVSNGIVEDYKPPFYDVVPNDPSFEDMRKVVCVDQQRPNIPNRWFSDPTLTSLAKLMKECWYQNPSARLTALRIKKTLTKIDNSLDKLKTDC
Test: Cell-based ALK2-R206H cell activity assay (Smad1-Ser463/Ser465 phosphorylation by AlphaLISA in HEK293-ALK2-R206H cells)
Conditions: read-out: Cell Line (Cell Assay IC50)
Reported IC50 values for a set of compounds

Below, 2 compounds whose answers are already recorded.
- COMPOUND: "CC[C@H](C)NC(=O)N1CCN(c2ccnn3cc(-c4ccc(C5CCN(C(C)C)CC5)cc4)cc23)CC1 [Compound 393]"
  TESTED_TARGET: "human ALK2 R206H (Homo sapiens, UniProt Q04771, R206H)"
  VALUE: "100 to 500 nM"
- COMPOUND: "CC(C)(C)OC(=O)N1CCC(N)(c2ccc(-c3cc4c(N5CCN(C(=O)C6CC6)CC5)ccnn4c3)cc2)CC1 [Compound 732]"
  TESTED_TARGET: "human ALK2 R206H (Homo sapiens, UniProt Q04771, R206H)"
  VALUE: "100 to 500 nM"

Problem: For human ALK2 R206H (Homo sapiens, UniProt Q04771, R206H), provide IC50 of CCN1CCN(c2ccc(-c3cc4c(N5CCN(C(=O)C6CC6(F)F)CC5)ccnn4c3)cc2)CC1 (stereo not shown) [Compound 361] please.
Solution: 100 to 500 nM

Problem: For human ALK2 R206H (Homo sapiens, UniProt Q04771, R206H), provide IC50 of CO[C@@]1(c2ccc(-c3cc4c(N5CCN(C(=O)NC(C)C)CC5)ccnn4c3)cc2F)CCCN(C(C)C)C1 [Compound 724] please.
Solution: < 100 nM

Problem: For human ALK2 R206H (Homo sapiens, UniProt Q04771, R206H), provide IC50 of COC1(c2ccc(-c3cc4c(N5CCN(C(=O)C6CCC(C#N)CC6)CC5)ccnn4c3)cc2)CN(C(C)C)C1 (stereo not shown) [Compound 729] please.
Solution: < 100 nM

Problem: For human ALK2 R206H (Homo sapiens, UniProt Q04771, R206H), provide IC50 of CCCNC(=O)N1CCN(c2ccnn3cc(-c4ccc([C@@H]5CCN(C(C)C)C5)cc4)cc23)CC1 [Compound 530] please.
Solution: < 100 nM

Problem: For human ALK2 R206H (Homo sapiens, UniProt Q04771, R206H), provide IC50 of CCN1CCN(c2ccc(-c3cc4c(N5CCN(C(=O)[C@H]6CC[C@H](C#N)CC6)CC5)ccnn4c3)cc2)CC1 [Compound 429] please.
Solution: < 100 nM

---

Target: human ALK2 R206H (Homo sapiens, UniProt Q04771, R206H)
Construct: expressed in transfected cells; host or cells: HEK293 (ATCC CRL1573), lentivirus transduction, blasticidin selection
Assay: Cell-based ALK2-R206H cell activity assay (Smad1-Ser463/Ser465 phosphorylation by AlphaLISA in HEK293-ALK2-R206H cells)
Details: read-out: Cell Line (Cell Assay IC50)
RECORDED_ENDPOINT: IC50

Below, 4 compounds whose answers are already recorded.
- COMPOUND: "CCOC(=O)N1CCN(c2ccnn3cc(-c4ccc(C5CCN(CC)CC5)cc4)cc23)C[C@H]1C [Compound 286]"
  IC50: "100 to 500 nM"
- COMPOUND: "CCOC(=O)N1CCN(c2ccnn3cc(-c4ccc(C5CN(C(C)C)C5)cc4)cc23)CC1 [Compound 182]"
  IC50: "< 100 nM"
- COMPOUND: "CC(C)N1CCC(c2ccc(-c3cc4c(N5CCN(C(=O)NCC6COC6)CC5)ccnn4c3)cc2)CC1 [Compound 661]"
  IC50: "100 to 500 nM"
- COMPOUND: "CC(C)N1CCC(c2ccc(-c3cc4c(N5CCN(C(=O)Nc6ccccc6F)CC5)ccnn4c3)cc2)CC1 [Compound 851]"
  IC50: "100 to 500 nM"

Problem: Which value of IC50 has been reported for CCN1CCC[C@H](c2ccc(-c3cc4c(N5CCN(C(=O)C6CC6)CC5)ccnn4c3)cc2)C1 [Compound 207] in the records?
Solution: < 100 nM

Problem: Which value of IC50 has been reported for CO[C@]1(c2ccc(-c3cc4c(N5CCN(C(=O)C6CC6)CC5)ccnn4c3)cc2)CCN(C(C)C)C1 [Compound 572] in the records?
Solution: < 100 nM

Problem: Which value of IC50 has been reported for CC(C)NC(=O)N1CCN(c2ccnn3cc(-c4ccc(C5(C(F)(F)F)CCNCC5)cc4)cc23)CC1 [Compound 823] in the records?
Solution: < 100 nM

---

Target: human ALK2 R206H (Homo sapiens, UniProt Q04771, R206H)
Construct: expressed in transfected cells; host or cells: HEK293 (ATCC CRL1573), lentivirus transduction, blasticidin selection
Experiment: Cell-based ALK2-R206H cell activity assay (Smad1-Ser463/Ser465 phosphorylation by AlphaLISA in HEK293-ALK2-R206H cells)
Conditions: read-out: Cell Line (Cell Assay IC50)
Reported IC50 values for a set of molecules

- MOLECULE: "CCC(C)N1CCC[C@@H](c2ccc(-c3cc4c(N5CCN(C(=O)C6CC6)CC5)ccnn4c3)cc2)C1 (stereo partly drawn)"
  RECORDED_ENDPOINT: "IC50"
  VALUE: "< 100 nM"
- MOLECULE: "CCN1CCC(c2ccc(-c3cc4c(N5CCN(C(=O)C6CCC(C)CC6)CC5)ccnn4c3)cc2)CC1 (stereo not drawn)"
  RECORDED_ENDPOINT: "IC50"
  VALUE: "< 100 nM"
- MOLECULE: "CCOC(=O)N1CCN(c2ccnn3cc(-c4ccc([C@]5(O)CCN(C(C)C)C5)cc4)cc23)CC1"
  RECORDED_ENDPOINT: "IC50"
  VALUE: "< 100 nM"
- MOLECULE: "[2H]C1(OC(=O)N2CCN(c3ccnn4cc(-c5ccc(C6CCN(C(C)C)CC6)cc5)cc34)CC2)COC1"
  RECORDED_ENDPOINT: "IC50"
  VALUE: "< 100 nM"

For the next question, use this molecule.
Problem: Which value of IC50 has been reported for CCOC1(c2ccc(-c3cc4c(N5CCN(C(=O)OC6CN(C(C)=O)C6)CC5)ccnn4c3)nc2)CCN(C(C)C)CC1 in the records?
Solution: 100 to 500 nM
